molecular target: iPHF (UniProt P10636-8 2-441); test: BLI (Octet), antibody on biosensor tip
Sequence (P10636 other isoform, or with tags, fused parts or gaps): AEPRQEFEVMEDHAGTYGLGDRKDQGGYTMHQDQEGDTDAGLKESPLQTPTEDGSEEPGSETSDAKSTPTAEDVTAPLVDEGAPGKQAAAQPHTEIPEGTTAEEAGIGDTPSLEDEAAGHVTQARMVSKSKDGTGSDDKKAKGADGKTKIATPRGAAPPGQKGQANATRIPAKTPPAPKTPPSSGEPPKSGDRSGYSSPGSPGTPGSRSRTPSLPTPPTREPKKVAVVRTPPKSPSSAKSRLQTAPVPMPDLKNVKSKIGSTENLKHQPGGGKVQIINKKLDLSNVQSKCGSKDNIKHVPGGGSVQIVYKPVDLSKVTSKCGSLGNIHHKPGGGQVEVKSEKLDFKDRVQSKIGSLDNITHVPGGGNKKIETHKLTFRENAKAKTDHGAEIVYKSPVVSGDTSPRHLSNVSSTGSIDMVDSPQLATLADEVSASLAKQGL
Reported Kd values follow for various binders
Report only the number, with the unit nM understood.

* VY003 (antibody, V domains shown) VH: EVQMVESGGGLVQPGGSLTLSCAASGFTFSSYRMNWVRQAPGKGLEWVSYISSSRSAIYYADSVKGRFTISRDNAKNSLYLQMNSLRDEDTAVYYCATLGIGYWGQGTLVTVSS VL: DIVMTQTPLSSPVTLGQPASISCRSSQSLVHSDGNTYLSWLQQRPGQPPRLLIYKISNRFSGVPDRFSGSGAGTDFTLKITRVEAEDVGIYYCMQVTQFPRTFGQGTKVEIR | 4.6
* VY012 (antibody, V domains shown) VH: EVQLLESGGGLVQPGGSLRLSCAASGFTYSSYAMSWVRRAPGKGLEWISIISGSSSITYYADSMKGRFTISRDNSKNTLFLQMNSLRAEDTAVYYCAKGGRYGYFQHWGQGTLVTVSS VL: SYVLTQPPSVSVAPGQTARITCGGNNIGSKSVHWYQQKPGQAPVLVVYDDSDRPSGIPERFSGSNSGNTATLTISRVEAGDEADYYCQVWDSSSDPVVFGGGTMLTVL | 5.1
* VY005 (antibody, V domains shown) VH: EVQLVESGGGLVQPGGSLRLSCAASGFTFSSYSMNWVRQAPGKGLEWISYISSSNSTIKYADSVKGRFTISRDNAKNSLYLQMNSLRDEDTAVYYCARRSLGDYWGQGTLVIVSS VL: DIQLTQSPSFLSASVGDRVTITCRASQGISCSLAWYQQKPGKAPKLLIYAASTLQSGVPSRFSGSGSGTEFTLTISSLQPEDFATYYCQQFNSYPFTFGPGTKVDIK | 1
* VY011 (antibody, V domains shown) VH: QVQLQESGPGLVKPSETLSLTCTVSGGSISNYYWTWIRQPAGKGLEWIGRVYTSGSANYNPSLKSRVTMSVDTSKNQFSLTLSSVTAADTAVYYCARDRGLYYWGQGTLVTVSS VL: DIVMTQTPLSSLVTLGQPASISCRSSQSLVHSDGNTYLSWLQQRPGQPPRLLIYKISKRFFGVPDRFSGSGAGTDFTLKINRVEAEDVGIYYCMQATQFPLTFGGGTKVEIK | 2

q: Provide measured Kd value, entry: VY013 (antibody, V domains shown) VH: QVTLKESGPVLVKPTETLTLTCTVSGFSLINARMAVSWIRQPPGKALEWLAHIFSNDEKSYSTSLKSRLTISKDTSKSQVVLIMTNMDPVDTATYYCARIRGYSYNYGMDVWGQGTTVTVSS VL: DIVMTQSPLSLPVIPGEPASISCRSSQSLLHSNGYIYLDWYLQKPGQSPQLLIYVGSNRASGVPDRFSGSGSGTDFKLKISRVEAEDVGVYYCMQTLQIPRTFGGGTKVEIK
a: 2.9

// provenance: patent US20240059766A1
